Source of measurements: PubChem BioAssay AID1159580

# PROTOCOL TEXT: chemical genetic growth profiling, strain panel (AID 1159580);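 also: tested at 20 µM; growth read once vehicle control cultures reached saturation at 30 °C; 1 = growth at the plate median or of vehicle wells; lower values mean less growth of the strain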
# CONDITION LABEL: S. cerevisiae deletion strains, growth OD, locus YOR136W, strain idh2, active compounds read low
Screen size: about 5,500 compounds; about 2,000 (36%) were called active. About 18% were inconclusive and are not listed. Some of the results follow.
READOUT TYPE: normalized growth
The reply should be a number, written without any unit.

These recorded examples may help you get a feel for the data.
COc1ccccc1-c1coc2cc(O)ccc2c1=O	1.03
C=C1CCC2[C@](C)(CO)[C@H](O)CC[C@@]2(C)[C@@H]1C/C=C1/C(=O)OC[C@H]1O (some centres not stated)	1.04
O=c1c(-c2ccc(O)cc2)coc2cc(O)ccc12	0.97
CN1CC(CO)=C[C@@H]2c3cccc4[nH]cc(c34)C[C@H]21	1.01

// next item, normalized growth requested
# normalized growth lookup, item `COc1ccc2c(c1)OC/C(=C\c1ccc(OC)c(O)c1)C2=O`
0.796
